assay: Oral pharmacokinetics in male beagle dogs, crossover, suspension in 0.5% MC
Assay type: in vivo
measurement parameters: male, beagle, dog, plasma, po, 2 mg/kg, 2 mg/Kg single oral dose, read-out: Cmax, Mean
measurement label: Cmax (ng/mL)
Lab book: enter the figure in ng/mL, no units written.

Need Cmax, item Cc1noc2c1-c1ccccc1C(c1ccc(Cl)cc1)=N[C@H]2CC(N)=O [amorphous form]
670

----------
# Plasma concentration, Mean listing for each entry below
assay: Oral pharmacokinetics in male beagle dogs, crossover, suspension in 0.5% MC
Format: in vivo
measurement parameters: male beagle dog, 2 mg/Kg single oral dose, 8 h; 2 mg/kg
Procedure: The objective was to compare the pharmacokinetic profiles of both forms in dogs using a crossover study design in which the same dogs were dosed sequentially with amorphous and monohydrate crystalline Form A with a washout period in between.
Lab book: enter the figure in ng/mL, no units written.

- compound: "Cc1noc2c1-c1ccccc1C(c1ccc(Cl)cc1)=N[C@H]2CC(N)=O [monohydrate Form A]"
  unit of measurement: "ng/mL"
  Plasma concentration, Mean: 214

Need Plasma concentration, Mean, item Cc1noc2c1-c1ccccc1C(c1ccc(Cl)cc1)=N[C@H]2CC(N)=O [amorphous form]
232

----------
assay: Oral pharmacokinetics in male Sprague Dawley rats, suspension in 0.5% Methylcellulose
Format: in vivo
measurement parameters: 10 mg/Kg single oral dose, 8.00 h, group value
measurement label: Plasma concentration, PO1

Need Plasma concentration, PO1, item Cc1noc2c1-c1ccccc1C(c1ccc(Cl)cc1)=N[C@H]2CC(N)=O [monohydrate Form A]
23.6 ng/mL

----------
assay: Oral pharmacokinetics in male Sprague Dawley rats, suspension in 0.5% Methylcellulose
Assay type: in vivo
measurement parameters: 10 mg/Kg single oral dose, 1.00 h, group value
measurement label: Plasma concentration, PO1 (ng/mL)
Lab book: enter the figure in ng/mL, no units written.

Need Plasma concentration, PO1, item Cc1noc2c1-c1ccccc1C(c1ccc(Cl)cc1)=N[C@H]2CC(N)=O [monohydrate Form A]
1790

----------
assay: Solubility and form stability in deionized water
Assay type: physicochemical
measurement parameters: deionized water, water, thermodynamic from solid
measurement label: solubility (µg/mL)
Lab book: enter the figure in µg/mL, no units written.

Need solubility, item Cc1noc2c1-c1ccccc1C(c1ccc(Cl)cc1)=N[C@H]2CC(N)=O [monohydrate Form A]
4.5

----------
assay: Oral pharmacokinetics in male Sprague Dawley rats, suspension in 0.5% Methylcellulose
Type: in vivo
measurement parameters: male, Sprague Dawley, rat, plasma, po, 60 mg/kg, 60 mg/Kg single oral dose, read-out: Cmax
measurement label: Cmax (µg/mL)
Lab book: enter the figure in µg/mL, no units written.

Need Cmax, item Cc1noc2c1-c1ccccc1C(c1ccc(Cl)cc1)=N[C@H]2CC(N)=O [amorphous form]
11.9

----------
assay: Oral pharmacokinetics in male Sprague Dawley rats, suspension in 0.5% Methylcellulose
Format: in vivo
measurement parameters: male, Sprague Dawley, rat, plasma, po, 10 mg/kg, 10 mg/Kg single oral dose
measurement label: AUC(0-t) (ng·h/mL)
Lab book: enter the figure in ng·h/mL, no units written.

Need AUC(0-t), item Cc1noc2c1-c1ccccc1C(c1ccc(Cl)cc1)=N[C@H]2CC(N)=O [monohydrate Form A]
5500

----------
assay: Oral pharmacokinetics in male beagle dogs, crossover, suspension in 0.5% MC
Type: in vivo
measurement parameters: male, beagle, dog, plasma, po, 2 mg/kg, 2 mg/Kg single oral dose, read-out: MRT0-last, Mean
measurement label: MRT last (h)
Lab book: enter the figure in h, no units written.

Need MRT last, item Cc1noc2c1-c1ccccc1C(c1ccc(Cl)cc1)=N[C@H]2CC(N)=O [amorphous form]
7.45

----------
assay: Oral pharmacokinetics in male beagle dogs, crossover, suspension in 0.5% MC
Type: in vivo
measurement parameters: male, beagle, dog, plasma, po, 2 mg/kg, 2 mg/Kg single oral dose, read-out: AUC0-inf, individual dogs
measurement label: AUC(0-inf) (ng·h/mL)
Lab book: enter the figure in ng·h/mL, no units written.

Need AUC(0-inf), item Cc1noc2c1-c1ccccc1C(c1ccc(Cl)cc1)=N[C@H]2CC(N)=O [amorphous form]
6110

----------
assay: Oral pharmacokinetics in male Sprague Dawley rats, suspension in 0.5% Methylcellulose
Type: in vivo
measurement parameters: 60 mg/Kg single oral dose, 8 h, 60 mg/kg
measurement label: Plasma concentration, Mean (ng/mL)
Lab book: enter the figure in ng/mL, no units written.

- compound: "Cc1noc2c1-c1ccccc1C(c1ccc(Cl)cc1)=N[C@H]2CC(N)=O [amorphous form]"
  Plasma concentration, Mean (ng/mL): 6440

Switching to the query record.
Need Plasma concentration, Mean, item Cc1noc2c1-c1ccccc1C(c1ccc(Cl)cc1)=N[C@H]2CC(N)=O [monohydrate Form A]
1760

----------
assay: Oral pharmacokinetics in male beagle dogs, crossover, suspension in 0.5% MC
Assay type: in vivo
measurement parameters: male, beagle, dog, plasma, po, 2 mg/kg, 2 mg/Kg single oral dose, read-out: AUC0-last, Mean
measurement label: AUC(0-t)
Returns: string containing the number followed by the unit.

Need AUC(0-t), item Cc1noc2c1-c1ccccc1C(c1ccc(Cl)cc1)=N[C@H]2CC(N)=O [amorphous form]
5390 ng·h/mL

----------
assay: Oral pharmacokinetics in male beagle dogs, crossover, suspension in 0.5% MC
Assay type: in vivo
measurement parameters: male beagle dog, 2 mg/Kg single oral dose, 12 h; 2 mg/kg
measurement label: Plasma concentration, Mean (ng/mL)
Lab book: enter the figure in ng/mL, no units written.

- compound: "Cc1noc2c1-c1ccccc1C(c1ccc(Cl)cc1)=N[C@H]2CC(N)=O [monohydrate Form A]"
  unit of measurement: "ng/mL"
  Plasma concentration, Mean: 151

Need Plasma concentration, Mean, item Cc1noc2c1-c1ccccc1C(c1ccc(Cl)cc1)=N[C@H]2CC(N)=O [amorphous form]
153

----------
assay: Oral pharmacokinetics in male beagle dogs, crossover, suspension in 0.5% MC
Assay type: in vivo
measurement parameters: male beagle dog, 2 mg/Kg single oral dose, 24 h; 2 mg/kg
# Plasma concentration, Mean listing for each entry below
Lab book: enter the figure in ng/mL, no units written.

- compound: "Cc1noc2c1-c1ccccc1C(c1ccc(Cl)cc1)=N[C@H]2CC(N)=O [amorphous form]"
  Plasma concentration, Mean [ng/mL]: 64

Switching to the query record.
Need Plasma concentration, Mean, item Cc1noc2c1-c1ccccc1C(c1ccc(Cl)cc1)=N[C@H]2CC(N)=O [monohydrate Form A]
67.1

----------
# Plasma concentration, Mean listing for each entry below
assay: Oral pharmacokinetics in male beagle dogs, crossover, suspension in 0.5% MC
Assay type: in vivo
measurement parameters: male beagle dog, 2 mg/Kg single oral dose, 4 h; 2 mg/kg
Returns: string containing the number followed by the unit.

- compound: "Cc1noc2c1-c1ccccc1C(c1ccc(Cl)cc1)=N[C@H]2CC(N)=O [amorphous form]"
  Plasma concentration, Mean: "528 ng/mL"

Switching to the query record.
Need Plasma concentration, Mean, item Cc1noc2c1-c1ccccc1C(c1ccc(Cl)cc1)=N[C@H]2CC(N)=O [monohydrate Form A]
435 ng/mL

----------
assay: Oral pharmacokinetics in male beagle dogs, crossover, suspension in 0.5% MC
Format: in vivo
measurement parameters: male, beagle, dog, plasma, po, 2 mg/kg, 2 mg/Kg single oral dose, read-out: T1/2, individual dogs (converted)
measurement label: half-life

Need half-life, item Cc1noc2c1-c1ccccc1C(c1ccc(Cl)cc1)=N[C@H]2CC(N)=O [amorphous form]
8.31 h

----------
assay: Oral pharmacokinetics in male Sprague Dawley rats, suspension in 0.5% Methylcellulose
Assay type: in vivo
measurement parameters: male, Sprague Dawley, rat, plasma, po, 10 mg/kg, 10 mg/Kg single oral dose, read-out: Cmax
measurement label: Cmax (ng/mL)
Lab book: enter the figure in ng/mL, no units written.

Need Cmax, item Cc1noc2c1-c1ccccc1C(c1ccc(Cl)cc1)=N[C@H]2CC(N)=O [monohydrate Form A]
1790

----------
assay: Oral pharmacokinetics in male Sprague Dawley rats, suspension in 0.5% Methylcellulose
Type: in vivo
measurement parameters: 10 mg/Kg single oral dose, 4.00 h, group value
measurement label: Plasma concentration, PO1
Returns: string containing the number followed by the unit.

Need Plasma concentration, PO1, item Cc1noc2c1-c1ccccc1C(c1ccc(Cl)cc1)=N[C@H]2CC(N)=O [monohydrate Form A]
416 ng/mL

----------
assay: Oral pharmacokinetics in male beagle dogs, crossover, suspension in 0.5% MC
Type: in vivo
measurement parameters: male, beagle, dog, plasma, po, 2 mg/kg, 2 mg/Kg single oral dose, read-out: MRT0-inf, individual dogs
measurement label: MRT inf
Returns: string containing the number followed by the unit.

Need MRT inf, item Cc1noc2c1-c1ccccc1C(c1ccc(Cl)cc1)=N[C@H]2CC(N)=O [amorphous form]
11 h

----------
assay: Oral pharmacokinetics in male Sprague Dawley rats, suspension in 0.5% Methylcellulose
Type: in vivo
measurement parameters: 60 mg/Kg single oral dose, 0.500 h
measurement label: Plasma concentration, Mean
Returns: string containing the number followed by the unit.

Need Plasma concentration, Mean, item Cc1noc2c1-c1ccccc1C(c1ccc(Cl)cc1)=N[C@H]2CC(N)=O [monohydrate Form A]
4060 ng/mL
